MEASURED ON: T1, recombinant SARS-CoV-2 Spike RBD domain, BQ.1.1 variant (SARS-CoV-2)
T1 construct: also called RBD BQ.1.1. variant
PROCEDURE TEXT: ELISA on coated RBD

BINDER | Binding AUC
SPK002M B1 antibody (antibody, human IgG1, kappa, V domains shown) VH: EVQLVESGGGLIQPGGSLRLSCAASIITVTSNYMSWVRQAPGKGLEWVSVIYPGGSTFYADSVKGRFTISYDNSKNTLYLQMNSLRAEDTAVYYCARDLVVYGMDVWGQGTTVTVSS VL: EIVLTQSPGTLSLSPGERATLSCRASQSVSDSYLAWYQQKPGQAPRLLIYGASSRATGIPGRFSGSGSGTDFTLTISRLEPEDFAIYYCQYGVTFGGGTKVEIKR | 31
SPK002M C3 antibody (antibody, human IgG1, kappa, V domains shown) VH: EVQLVESGGGLIQPGGSLRLSCAASIITVTSNYMSWVRQAPGKGLEWVSVIYPGGSTFYADSVKGRFTISTDNSKNTLYLQMNSLRAEDTAVYYCARDLVVYGMDVWGQGTTVTVSS VL: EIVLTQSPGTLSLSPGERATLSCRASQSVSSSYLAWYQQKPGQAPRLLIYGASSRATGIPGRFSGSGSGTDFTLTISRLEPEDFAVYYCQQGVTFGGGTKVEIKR | 31
SPK002M A5 antibody (antibody, human IgG1, kappa, V domains shown) VH: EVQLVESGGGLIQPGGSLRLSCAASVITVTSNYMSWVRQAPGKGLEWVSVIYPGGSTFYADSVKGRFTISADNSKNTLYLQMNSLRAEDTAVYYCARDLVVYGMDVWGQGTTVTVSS VL: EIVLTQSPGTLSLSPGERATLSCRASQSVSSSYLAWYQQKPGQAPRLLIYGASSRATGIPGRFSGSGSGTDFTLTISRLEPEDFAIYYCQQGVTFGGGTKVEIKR | 30
SPK002M B2 antibody (antibody, human IgG1, kappa, V domains shown) VH: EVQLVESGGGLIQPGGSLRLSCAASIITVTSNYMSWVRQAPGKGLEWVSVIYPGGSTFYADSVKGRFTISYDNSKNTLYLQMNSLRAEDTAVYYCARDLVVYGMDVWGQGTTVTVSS VL: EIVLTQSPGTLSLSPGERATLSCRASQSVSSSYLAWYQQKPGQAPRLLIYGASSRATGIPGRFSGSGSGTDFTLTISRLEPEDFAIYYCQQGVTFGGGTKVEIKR | 31
SPK002M A3 antibody (antibody, human IgG1, kappa, V domains shown) VH: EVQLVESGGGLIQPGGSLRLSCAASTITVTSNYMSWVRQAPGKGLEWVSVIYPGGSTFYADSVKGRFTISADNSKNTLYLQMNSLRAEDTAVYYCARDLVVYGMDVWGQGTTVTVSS VL: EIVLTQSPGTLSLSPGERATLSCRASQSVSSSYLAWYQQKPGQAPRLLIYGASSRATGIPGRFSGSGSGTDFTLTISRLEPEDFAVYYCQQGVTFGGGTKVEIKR | 30
